Cited source for all entries: the Kinase Knowledgebase extract (Sharma et al. 2016)

target: PIK3CA (human) (UniProt P42336); assay: Assessment of PIK3CA Kinase Activity
Sequence (P42336 whole entry, looked up): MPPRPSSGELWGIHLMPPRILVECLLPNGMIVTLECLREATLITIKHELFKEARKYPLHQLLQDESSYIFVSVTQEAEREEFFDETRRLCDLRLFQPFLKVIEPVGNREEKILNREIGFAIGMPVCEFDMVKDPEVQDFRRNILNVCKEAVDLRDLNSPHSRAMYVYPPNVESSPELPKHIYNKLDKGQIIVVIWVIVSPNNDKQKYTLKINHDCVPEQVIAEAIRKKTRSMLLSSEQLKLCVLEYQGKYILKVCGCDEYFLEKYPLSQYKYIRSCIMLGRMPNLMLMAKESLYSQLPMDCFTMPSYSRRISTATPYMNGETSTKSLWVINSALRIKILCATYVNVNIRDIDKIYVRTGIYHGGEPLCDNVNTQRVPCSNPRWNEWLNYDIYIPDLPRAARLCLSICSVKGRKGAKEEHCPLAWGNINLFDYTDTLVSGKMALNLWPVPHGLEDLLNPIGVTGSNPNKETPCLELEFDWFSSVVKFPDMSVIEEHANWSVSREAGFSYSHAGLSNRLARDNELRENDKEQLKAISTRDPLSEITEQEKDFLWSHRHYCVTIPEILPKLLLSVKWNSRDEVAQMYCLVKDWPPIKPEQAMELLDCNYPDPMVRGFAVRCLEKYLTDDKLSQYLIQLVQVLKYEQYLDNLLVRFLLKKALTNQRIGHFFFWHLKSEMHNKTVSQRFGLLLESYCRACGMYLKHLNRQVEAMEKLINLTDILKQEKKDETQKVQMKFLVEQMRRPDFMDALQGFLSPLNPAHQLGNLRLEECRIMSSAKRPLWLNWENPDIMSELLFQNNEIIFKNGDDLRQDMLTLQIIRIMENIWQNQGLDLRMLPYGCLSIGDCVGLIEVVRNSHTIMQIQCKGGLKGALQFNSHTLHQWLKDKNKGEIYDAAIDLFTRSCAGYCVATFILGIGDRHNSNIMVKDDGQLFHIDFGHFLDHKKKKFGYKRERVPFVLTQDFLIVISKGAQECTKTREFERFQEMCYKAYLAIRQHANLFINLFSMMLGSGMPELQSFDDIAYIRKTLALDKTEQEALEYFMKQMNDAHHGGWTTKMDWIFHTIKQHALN
IC50 values, listed per item

record.smiles	IC50
COc1cc(N[C@@H](C)c2cc3cccc(Cl)c3c(=O)n2-c2ccccc2)nc(N)n1	> 10 µM
Cc1ccc(-n2c([C@H](C)Nc3nc(N)ncc3C#N)cc3cccc(Cl)c3c2=O)cc1	> 10 µM
Cc1nc(N)nc(N[C@@H](C)c2cc3cccc(Cl)c3c(=O)n2-c2ccccc2)c1C#N	< 0.1 µM
COc1cc(-c2cccc3cc([C@H](C)Nc4nc(N)ncc4C(=O)N4CC(F)(F)C4)n(-c4ccccc4)c(=O)c23)ccn1	> 10 µM
C[C@H](Nc1nc(N)ncc1C#N)c1cc2cccc(-c3ccc(F)cc3)c2c(=O)n1-c1ccccc1	0.1 to 1 µM
C[C@H](Nc1nc(N)ncc1-c1cnn(C)c1)c1cc2cccc(Cl)c2c(=O)n1-c1ccccc1	> 10 µM
COc1cncc(-c2cccc3cc([C@H](C)Nc4nc(N)ncc4C#N)n(C4CC4)c(=O)c23)c1	0.1 to 1 µM
C[C@H](Nc1nc(N)ncc1C#N)c1cc2cccc(-c3cnc4ccccc4c3)c2c(=O)n1-c1cccc(F)c1	0.1 to 1 µM
COc1cnc(-c2cccc3cc([C@H](C)Nc4nc(N)ncc4C#N)n(-c4ccccc4)c(=O)c23)nc1	> 10 µM
C[C@H](Nc1ncnc(N)c1[N+](=O)[O-])c1cc2cccc(Cl)c2c(=O)n1-c1ccccc1	0.1 to 1 µM
COc1cccc2cc([C@H](C)Nc3nc(N)ncc3C#N)n(-c3ccccc3)c(=O)c12	> 10 µM
COc1cccc(-c2cccc3cc([C@H](C)Nc4nc(N)ncc4C#N)n(-c4ccccc4)c(=O)c23)c1	< 0.1 µM
Cc1cc(-c2cccc3cc([C@H](C)Nc4nc(N)ncc4C#N)n(-c4ccccc4)c(=O)c23)ccn1	0.1 to 1 µM
C[C@H](Nc1nc(N)ncc1C#N)c1cc2cccc(-c3ccc(=O)n(C4CCCC4)c3)c2c(=O)n1-c1ccccc1	0.1 to 1 µM
CC(C)OC(=O)c1cccc(-n2c([C@H](C)Nc3nc(N)ncc3C#N)cc3cccc(Cl)c3c2=O)c1	> 10 µM
C[C@H](Nc1nc(N)ncc1C#N)c1cc2cccc(Cl)c2c(=O)n1-c1ccc2c(c1)OCO2	> 10 µM
COc1cncc(-c2cccc3cc([C@H](C)Nc4nc(N)ncc4C(N)=O)n(-c4ccccc4)c(=O)c23)c1	0.1 to 1 µM
C[C@H](Nc1nc(N)ncc1-c1ccoc1)c1cc2cccc(Cl)c2c(=O)n1-c1ccccc1	> 10 µM
COc1ncc(-c2cccc3cc([C@H](C)Nc4nc(N)ncc4C(F)(F)F)n(-c4cccc(F)c4)c(=O)c23)cn1	> 10 µM
Cc1cccc(-c2cccc3cc([C@H](C)Nc4nc(N)ncc4C#N)n(-c4ccccc4)c(=O)c23)c1	0.1 to 1 µM
C[C@H](Nc1nc(N)ncc1C(=O)N1CCC1)c1cc2cccc(Cl)c2c(=O)n1-c1ccccc1	> 10 µM
COc1cncc(-c2cccc3cc([C@H](C)Nc4nc(N)ncc4C#N)n(-c4cccc(F)c4)c(=O)c23)c1	0.1 to 1 µM
Cc1cnc(-c2cnc(N)nc2N[C@@H](C)c2cc3cccc(Cl)c3c(=O)n2-c2ccccc2)s1	> 10 µM
C[C@H](Nc1nc(N)ncc1C#N)c1cc2cccc(-c3cncc(N(C)C)c3)c2c(=O)n1-c1ccccc1	0.1 to 1 µM
C[C@H](Nc1cc(Cl)nc(N)n1)c1cc2cccc(Cl)c2c(=O)n1-c1ccccc1	> 10 µM
Cc1cccc2cc([C@H](C)Nc3nc(N)ncc3C(F)(F)F)n(-c3cccc(F)c3)c(=O)c12	> 10 µM
COc1cc(-n2c([C@H](C)Nc3nc(N)ncc3C#N)cc3cccc(Cl)c3c2=O)ccc1F	> 10 µM
COc1cc(-c2cccc3cc([C@H](C)Nc4nc(N)nc(C)c4C#N)n(-c4ccccc4)c(=O)c23)ccn1	< 0.1 µM
C[C@H](Nc1nc(N)ncc1C#N)c1cc2cccc(Cl)c2c(=O)n1C	> 10 µM
C[C@H](Nc1nc(N)ncc1-c1cccs1)c1cc2cccc(Cl)c2c(=O)n1-c1ccccc1	> 10 µM
COc1nc(-c2cnc(N)nc2N[C@@H](C)c2cc3cccc(-c4ccc(=O)n(C)c4)c3c(=O)n2-c2ccccc2)cs1	> 10 µM
C[C@H](Nc1nc(N)ncc1-c1cscn1)c1cc2cccc(-c3ccc(=O)n(C)c3)c2c(=O)n1-c1ccccc1	> 10 µM
C[C@H](Nc1nc(N)ncc1NS(C)(=O)=O)c1cc2cccc(Cl)c2c(=O)n1-c1ccccc1	> 10 µM
COc1cc(-c2cccc3cc([C@H](C)Nc4nc(N)ncc4C#N)n(-c4cccc(F)c4)c(=O)c23)ccn1	0.1 to 1 µM

---

target: UniProt P42336; experiment: Assessment of PIK3CA Kinase Activity
quantity.measured: IC50

record.smiles	recorded.measurement
CC(=O)c1cnc(N)nc1N[C@@H](C)c1cc2cccc(Cl)c2c(=O)n1-c1ccccc1	0.1 to 1 µM
C[C@H](Nc1nc(N)ncc1-c1ccsc1)c1cc2cccc(Cl)c2c(=O)n1-c1ccccc1	> 10 µM
C[C@H](Nc1nc(N)ncc1-c1cccnc1)c1cc2cccc(Cl)c2c(=O)n1-c1ccccc1	> 10 µM
COc1cc(-c2cccc3cc([C@H](C)Nc4nc(N)ncc4-c4ccccc4)n(-c4ccccc4)c(=O)c23)ccn1	> 10 µM
C[C@H](Nc1cc(N)ncn1)c1cc2cccc(Cl)c2c(=O)n1-c1ccccc1	> 10 µM
Cc1ncc(-c2cccc3nc([C@H](C)Nc4nc(N)ncc4C#N)n(-c4ccccc4)c(=O)c23)cn1	> 10 µM
COc1cc(-c2cccc3cc([C@H](C)Nc4nc(N)ncc4-c4cnc(OC)s4)n(-c4ccccc4)c(=O)c23)ccn1	0.1 to 1 µM
C[C@H](Nc1nc(N)ncc1C#N)c1cc2cccc(Cl)c2c(=O)n1-c1ccc(F)cc1	> 10 µM
C[C@H](Nc1nc(N)ncc1-c1ccncc1)c1cc2cccc(Cl)c2c(=O)n1-c1ccccc1	> 10 µM
CCOc1cc(-c2cccc3cc([C@H](C)Nc4nc(N)ncc4C#N)n(-c4ccccc4)c(=O)c23)ccn1	0.1 to 1 µM
C[C@H](Nc1nc(N)ncc1C#N)c1cc2cccc(-c3cccc(O)n3)c2c(=O)n1-c1ccccc1	> 10 µM
C[C@H](Nc1nc(N)ncc1NC(=O)c1ccccc1)c1cc2cccc(Cl)c2c(=O)n1-c1ccccc1	> 10 µM
COc1cc(-c2cccc3cc([C@H](C)Nc4nc(N)ncc4-c4ccc(F)c(O)c4)n(-c4ccccc4)c(=O)c23)ccn1	> 10 µM
Cc1ncc(-c2cccc3cc([C@H](C)Nc4ncnc(N)c4C#N)n(-c4ccon4)c(=O)c23)cn1	> 10 µM
C[C@H](Nc1nc(N)ncc1-c1cn[nH]c1)c1cc2cccc(Cl)c2c(=O)n1-c1ccccc1	> 10 µM
C[C@H](Nc1nc(N)ncc1C#N)c1cc2cccc(Cl)c2c(=O)n1C1CCCC1	> 10 µM
Cc1nc(-c2cnc(N)nc2N[C@@H](C)c2cc3cccc(Cl)c3c(=O)n2-c2ccccc2)sc1C	> 10 µM

---

molecular target: PIK3CD (Human) (UniProt O00329); assay: Assessment of PIK3CD Kinase Activity
Sequence (O00329 whole entry, looked up): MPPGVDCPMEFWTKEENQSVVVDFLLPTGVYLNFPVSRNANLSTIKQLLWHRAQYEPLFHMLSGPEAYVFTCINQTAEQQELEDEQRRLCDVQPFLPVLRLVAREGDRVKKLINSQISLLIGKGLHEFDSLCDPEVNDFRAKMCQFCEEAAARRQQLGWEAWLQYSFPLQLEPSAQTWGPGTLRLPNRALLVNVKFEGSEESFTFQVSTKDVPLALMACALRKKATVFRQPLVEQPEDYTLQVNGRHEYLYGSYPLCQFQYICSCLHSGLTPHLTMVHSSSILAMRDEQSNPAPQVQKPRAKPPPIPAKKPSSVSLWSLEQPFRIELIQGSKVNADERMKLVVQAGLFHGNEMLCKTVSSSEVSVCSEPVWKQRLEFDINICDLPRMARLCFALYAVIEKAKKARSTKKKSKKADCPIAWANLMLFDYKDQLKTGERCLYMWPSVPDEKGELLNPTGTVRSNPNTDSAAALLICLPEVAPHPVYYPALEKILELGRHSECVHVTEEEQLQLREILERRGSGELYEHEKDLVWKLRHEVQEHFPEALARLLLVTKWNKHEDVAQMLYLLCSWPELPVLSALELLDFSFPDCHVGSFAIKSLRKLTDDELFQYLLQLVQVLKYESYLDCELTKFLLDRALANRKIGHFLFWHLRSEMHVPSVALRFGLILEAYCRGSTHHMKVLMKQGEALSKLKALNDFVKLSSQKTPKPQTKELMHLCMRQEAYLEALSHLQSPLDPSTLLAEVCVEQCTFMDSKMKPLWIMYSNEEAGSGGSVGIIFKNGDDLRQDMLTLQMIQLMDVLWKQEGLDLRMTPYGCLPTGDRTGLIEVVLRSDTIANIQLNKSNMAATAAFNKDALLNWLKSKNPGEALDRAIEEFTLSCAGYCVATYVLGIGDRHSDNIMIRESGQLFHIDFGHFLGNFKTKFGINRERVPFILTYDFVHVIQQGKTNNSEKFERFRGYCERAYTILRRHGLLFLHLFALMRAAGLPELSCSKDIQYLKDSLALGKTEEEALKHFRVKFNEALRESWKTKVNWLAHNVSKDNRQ
quantity.measured: IC50

record.smiles	quantity.measured	recorded.measurement
COc1ncc(-c2cccc3cc([C@H](C)Nc4ncnc(N)c4C#N)n(-c4ccon4)c(=O)c23)cn1	IC50	100 to 1000 nM
C[C@H](Nc1cc(Cl)nc(N)n1)c1cc2cccc(Cl)c2c(=O)n1-c1ccccc1	IC50	100 to 1000 nM
C[C@H](Nc1nc(N)ncc1C#N)c1cc2cccc(Cl)c2c(=O)n1C1CCCC1	IC50	< 100 nM

---

molecular target: PIK3CD (Human) (UniProt O00329); test: Assessment of PIK3CD Kinase Activity

record.smiles	IC50
Cc1ncc(-c2cccc3cc([C@H](C)Nc4nc(N)ncc4C#N)n(-c4ccccc4)c(=O)c23)cn1	< 100 nM
C[C@H](Nc1nc(N)ncc1-c1nccs1)c1cc2cccc(Cl)c2c(=O)n1-c1ccccc1	< 100 nM
C[C@H](Nc1nc(N)ncc1-c1cccnc1)c1cc2cccc(Cl)c2c(=O)n1-c1ccccc1	100 to 1000 nM
C[C@H](Nc1nc(N)ncc1C(=O)N1CCC1)c1cc2cccc(-c3cnn(C)c3)c2c(=O)n1-c1ccccc1	100 to 1000 nM
C[C@H](Nc1ncnc(Cl)c1[N+](=O)[O-])c1cc2cccc(Cl)c2c(=O)n1-c1ccccc1	100 to 1000 nM
C[C@H](Nc1nc(N)ncc1C#N)c1cc2cccc(-c3cncc(OC(F)F)c3)c2c(=O)n1-c1ccccc1	< 100 nM
CC(C)OC(=O)c1cccc(-n2c([C@H](C)Nc3nc(N)ncc3C#N)cc3cccc(Cl)c3c2=O)c1	100 to 1000 nM
C[C@H](Nc1nc(N)ncc1-c1cccc(S(=O)(=O)N2CCCCC2)c1)c1cc2cccc(Cl)c2c(=O)n1-c1ccccc1	100 to 1000 nM
COc1ncc(-c2cccc3cc([C@H](C)Nc4nc(N)ncc4C(F)(F)F)n(-c4ccccc4)c(=O)c23)cn1	< 100 nM
COc1ncc(-c2cccc3cc([C@H](C)Nc4nc(N)ncc4C#N)n(C4CC4)c(=O)c23)cn1	< 100 nM
Cc1ccc(NS(C)(=O)=O)cc1-c1cnc(N)nc1N[C@@H](C)c1cc2cccc(Cl)c2c(=O)n1-c1ccccc1	< 100 nM
C[C@H](Nc1nc(N)ncc1-c1cscn1)c1cc2cccc(Cl)c2c(=O)n1-c1ccccc1	< 100 nM
C[C@H](Nc1nc(N)ncc1C#N)c1cc2cccc(-c3cccc(S(N)(=O)=O)c3)c2c(=O)n1-c1ccccc1	< 100 nM
COc1cncc(-c2cccc3cc([C@H](C)Nc4nc(N)ncc4C(N)=O)n(-c4ccccc4)c(=O)c23)c1	< 100 nM
C[C@H](Nc1nc(N)ncc1C#N)c1nc2cccc(Cl)c2c(=O)n1-c1ccccc1	< 100 nM
COc1ccc(-c2cccc3cc([C@H](C)Nc4nc(N)ncc4C#N)n(-c4ccccc4)c(=O)c23)cc1	< 100 nM
C[C@H](Nc1nc(N)ncc1-c1cn[nH]c1)c1cc2cccc(Cl)c2c(=O)n1-c1ccccc1	100 to 1000 nM
Cc1ncc(-c2cccc3nc([C@H](C)Nc4nc(N)ncc4C#N)n(-c4ccccc4)c(=O)c23)cn1	< 100 nM
C[C@H](Nc1nc(N)ncc1C#N)c1cc2cccc(Cl)c2c(=O)n1-c1cccc(F)c1F	< 100 nM
COc1cc(-c2cccc3cc([C@H](C)Nc4nc(N)ncc4-c4ccc(F)c(O)c4)n(-c4ccccc4)c(=O)c23)ccn1	< 100 nM
C[C@H](Nc1nc(N)ncc1C#N)c1cc2cccc(-c3ccc4c(c3)OCO4)c2c(=O)n1-c1ccccc1	< 100 nM
CC(C)n1c([C@H](C)Nc2nc(N)ncc2C#N)cc2cccc(-c3ccc(=O)n(C)c3)c2c1=O	< 100 nM
Cc1ccc(-c2cccc3cc([C@H](C)Nc4nc(N)ncc4C#N)n(-c4ccccc4)c(=O)c23)cc1	< 100 nM
COc1ncc(-c2cccc3cc([C@H](C)Nc4nc(N)ncc4C#N)n(-c4cccc(F)c4)c(=O)c23)cn1	< 100 nM
C[C@H](Nc1nc(N)ncc1C#N)c1cc2cccc(Cl)c2c(=O)n1Cc1ccccc1	< 100 nM
C[C@H](Nc1nc(N)ncc1C#N)c1cc2cccc(-c3cncc(C(F)(F)F)c3)c2c(=O)n1-c1ccccc1	< 100 nM
C[C@H](Nc1nc(N)ncc1-c1cncs1)c1cc2cccc(Cl)c2c(=O)n1-c1ccccc1	< 100 nM
COc1ncc(-c2cccc3cc([C@H](C)Nc4nc(N)ncc4-c4cncs4)n(-c4ccccc4)c(=O)c23)cn1	< 100 nM
C[C@H](Nc1nc(N)ncc1C#N)c1cc2cccc(-c3ccnc(O)c3)c2c(=O)n1-c1ccccc1	< 100 nM
C[C@H](Nc1nc(N)ncc1C#N)c1cc2cccc(-c3cccc(C#N)c3)c2c(=O)n1-c1ccccc1	< 100 nM
C[C@H](Nc1nc(N)ncc1-c1ccc(O)cc1)c1cc2cccc(Cl)c2c(=O)n1-c1ccccc1	100 to 1000 nM
COc1cc(-c2cccc3cc([C@@H](C)Nc4nc(N)ncc4C#N)n(-c4ccccc4)c(=O)c23)ccn1	< 100 nM
C#Cc1cccc2cc([C@H](C)Nc3nc(N)ncc3C#N)n(-c3ccccc3)c(=O)c12	< 100 nM
